Experiment: in vitro
Details: dog, MDCK cells
selectivity ratio overview
// response body must contain only the number

Sample answers from the record:
Which measured selectivity ratio value corresponds to O=C(O)[C@@H]1Cc2cc(O)c(O)cc2[C@H](Cc2ccc(O)c(O)c2)N1C(=O)c1ccccc1Cl ?
5.4

Which measured selectivity ratio value corresponds to COC(=O)[C@@H]1Cc2cc(O)c(O)cc2[C@H](Cc2ccc(O)c(O)c2)N1C(=O)c1ccccc1 ?
29.7

Which measured selectivity ratio value corresponds to COC(=O)[C@@H]1Cc2cc(O)c(O)cc2[C@H](Cc2ccc(O)c(O)c2)N1C(=O)c1cccc(Cl)c1 ?
25.3

Which measured selectivity ratio value corresponds to CCCOC(=O)[C@@H]1Cc2cc(O)c(O)cc2[C@H](Cc2ccc(O)c(O)c2)N1C(=O)c1ccccc1Cl ?
113

Now look at this entry.
Which measured selectivity ratio value corresponds to COC(=O)[C@@H]1Cc2cc(O)c(O)cc2[C@H](Cc2ccc(O)c(O)c2)N1C(=O)c1c(Cl)cccc1Cl ?
15.5

###

Assay: AUC (0 to t) in BALB/c nude mouse at 2 mg/kg, iv measured after 24 hrs by LC-MS/MS analysis
Assay type: ADME, organism-based
Design: time 24 hrs, dose 2 mg/kg, route iv
Settings: in vivo
reported.metric: AUC(0-t) at 24 h (ng·h/mL)
Write the answer as a number in ng·h/mL, unit excluded.

Which measured AUC(0-t) at 24 h value corresponds to CCCOC(=O)[C@@H]1Cc2cc(O)c(O)cc2[C@H](Cc2ccc(O)c(O)c2)N1C(=O)c1ccccc1Cl ?
536

###

Experiment: Bioavailability in BALB/c nude mouse at 15 mg/kg, ip measured after 24 hrs by LC-MS/MS analysis
Type: ADME, organism-based
Conditions: in vivo
reported.metric: bioavailability (%)
Write the answer as a number in %, unit excluded.

Which measured bioavailability value corresponds to CCCOC(=O)[C@@H]1Cc2cc(O)c(O)cc2[C@H](Cc2ccc(O)c(O)c2)N1C(=O)c1ccccc1Cl ?
29.5

###

Test: Metabolic stability in mouse liver S9 fraction assessed as half life at 10 uM incubated for 5 mins in presence of NADPH and UDPGA by LC-MS/MS analysis
Format: ADME, subcellular
reported.metric: half-life at 10 µM (h)
Write the answer as a number in h, unit excluded.

Which measured half-life at 10 µM value corresponds to CCCOC(=O)[C@@H]1Cc2cc(O)c(O)cc2[C@H](Cc2ccc(O)c(O)c2)N1C(=O)c1ccccc1Cl ?
1.72

###

Experiment: Cmax in BALB/c nude mouse at 10 mg/kg, po measured after 24 hrs by LC-MS/MS analysis
Assay type: ADME, organism-based
Parameters: dose 10 mg/kg, time 24 hrs, route po
Settings: in vivo
reported.metric: Cmax

Which measured Cmax value corresponds to CCCOC(=O)[C@@H]1Cc2cc(O)c(O)cc2[C@H](Cc2ccc(O)c(O)c2)N1C(=O)c1ccccc1Cl ?
92.2 ng/mL

###

Experiment: Solubility of the compound in FaSSIF
Format: physicochemical
reported.metric: solubility (µM)
Write the answer as a number in µM, unit excluded.

Which measured solubility value corresponds to CCCOC(=O)[C@@H]1Cc2cc(O)c(O)cc2[C@H](Cc2ccc(O)c(O)c2)N1C(=O)c1ccccc1Cl ?
78.2

###

Experiment: Cmax in BALB/c nude mouse at 15 mg/kg, ip measured after 24 hrs by LC-MS/MS analysis
Assay type: ADME, organism-based
Parameters: time 24 hrs, dose 15 mg/kg, route ip
Conditions: in vivo
reported.metric: Cmax (ng/mL)
Write the answer as a number in ng/mL, unit excluded.

Which measured Cmax value corresponds to CCCOC(=O)[C@@H]1Cc2cc(O)c(O)cc2[C@H](Cc2ccc(O)c(O)c2)N1C(=O)c1ccccc1Cl ?
890
